experiment: Toxicity liver stage against HepG2, at 10uM; format: cell-based; set-up: test concentration 10 uM, cell line HepG2-A16-CD81EGFP; settings: human, HepG2-A16-CD81EGFP cells; read-out: INHIBITION
value.type: cytotoxicity at 10 µM

Item under review: Cc1ccc(C(=O)N2CCCC3(CCCC(=O)N3C)C2)cc1F (configuration not stated) . Reported cytotoxicity at 10 µM?
4.12%

Item under review: CCOC(=O)[C@@H]1[C@@H](O)C(=O)N(C)C12CCN(C(=O)OC)CC2 . Reported cytotoxicity at 10 µM?
1.97%

Item under review: COc1ccc(CN2C[C@@H]3CN(C(=O)[C@H]4CCCO4)C[C@@H]3C2=O)cc1 . Reported cytotoxicity at 10 µM?
-0.0368%

Item under review: CNc1nc(CNC(=O)Nc2cccc(CC(F)(F)F)c2)cs1 . Reported cytotoxicity at 10 µM?
-9.77%

Item under review: O=C(O)c1cn(CC2CCCN(c3nccc4occc34)C2)nn1 (configuration not stated) . Reported cytotoxicity at 10 µM?
-5.17%

Item under review: CC(C)C(=O)N1CCC2(CCCN(CCOc3ccccc3)C2)C1 (configuration not stated) . Reported cytotoxicity at 10 µM?
6.71%

Item under review: O=C(NCc1nnc2ccccn12)N1CCOC(c2cccs2)C1 (configuration not stated) . Reported cytotoxicity at 10 µM?
1.64%

---

experiment: Toxicity liver stage against HepG2, at 10uM; assay type: cell-based; design: test concentration 10 uM, cell line HepG2-A16-CD81EGFP; details: human, HepG2-A16-CD81EGFP cells; read-out: INHIBITION
Below, each entry is listed alongside its reported cytotoxicity at 10 µM.
Please respond with the number in % and leave the unit unwritten.

Solved cases (4 shown):
CC(C)SCC(=O)NCc1cc2n(n1)CCCN(C1CCCCC1)C2 | 2.37
CCc1ncnc2c1CCN(C(=O)c1ccncc1F)CC2 | -88.5
Cn1ncc(C(=O)N2CCN(S(C)(=O)=O)CC2)c1Cl | 7.58
COc1cc(C#N)ccc1OC12CCCN(CC1)C2 (stereo not given) | -19.1

Item under review: Cc1ccc(-c2ccnc(NC(C)c3ncc[nH]3)n2)c(C)n1 (stereo not given) . Reported cytotoxicity at 10 µM?
3.29

---

assay: Toxicity liver stage against HepG2, at 10uM; assay type: cell-based; design: test concentration 10 uM, cell line HepG2-A16-CD81EGFP; settings: human, HepG2-A16-CD81EGFP cells; read-out: INHIBITION
value.type: cytotoxicity at 10 µM (%)
Please respond with the number in % and leave the unit unwritten.

Item under review: CCS(=O)(=O)CCN(CC1CCCO1)C1CCCC1 (stereo unspecified) . Reported cytotoxicity at 10 µM?
-3.52

---

assay: Toxicity liver stage against HepG2, at 10uM; assay type: cell-based; design: test concentration 10 uM, cell line HepG2-A16-CD81EGFP; conditions: human, HepG2-A16-CD81EGFP cells; read-out: INHIBITION
value.type: cytotoxicity at 10 µM (%)
Please respond with the number in % and leave the unit unwritten.

Solved cases (3 shown):
COc1ccc(-c2cc3nc([C@H](C)NC(=O)C4CC4)nn3cn2)cc1 | -27
Cc1cnn(CC2CN(Cc3cccc(C(N)=O)c3)CCO2)c1 (stereo not drawn) | -1.52
Cn1ncc2c1NC(=O)CC2c1ccc(O)cc1 (stereo not drawn) | 24.3

Consider now this further molecule.
Item under review: CCC(C)N(Cc1cccnc1)C(=O)c1ncccc1O (stereo not drawn) . Reported cytotoxicity at 10 µM?
14.9

Data credit: ChEMBL document CHEMBL4513216
